- ASSAY_PROCEDURE: qHTS of pediatric cancer cell lines to identify multiple opportunities for drug repurposing: Confirmatory screen for Rh41 cells (AID 1347123);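 further: 48 h compound exposure; nearly all actives have a fitted effect of over 60% in size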
- RECORDED_CONDITIONS: Rh41 rhabdomyosarcoma cells, viability/cytotoxicity qHTS; series mostly up to 45.9 µM
Results filed as inconclusive are left out. Activity calls are given as the source filed them. The call rests on the fitted dose curve; in most records, active means well fitted cell-killing curve with a large enough effect; inconclusive means small, poorly fitted or top-dose-only effect; inactive means no such curve, though single readings can be large or run the other way. Numbered stars: 1 amine (or outer) side, 2 acyl side, 3 side chain; on linkers, the order of the positions; unused ones are H or OH. Bridge positions count the residues as written; N and C are the ends. Square brackets hold non-standard residues; d marks the D form. Peptide text beside a SMILES is read from it. I, II: the chains in the order shown. Actinocin(9to1) = Cc1c2oc3c(C)ccc(C(=O)[*:1])c3nc-2c(C(=O)[*:2])c(N)c1=O; NMeV = CN[C@H](C(=O)O)C(C)C; Sar = CNCC(=O)O
Field 'call' accepts yes for active, no for inactive

Reference set, count: 5
# COMPOUND, LABEL_VALUE
measured = [
    ("CC(=O)Oc1ccc(C(c2ccc(OC(C)=O)cc2)c2ccccn2)cc1", "no"),
    ("CN(C)/N=N/c1nc[nH]c1C(N)=O", "no"),
    ("OC[C@H]1O[C@@H](n2cnc3c(=S)nc[nH]c32)[C@H](O)[C@@H]1O", "yes"),
    ("CC(=O)[C@H]1CC[C@H]2[C@@H]3C[C@H](C)C4=CC(=O)CC[C@]4(C)[C@H]3[C@@H](O)C[C@]12C", "yes"),
    ("CC(C)(C(=O)c1cccnc1)c1cccnc1", "no"),
]

Let's switch to this compound now.
State the result this test recorded for Cc1c2oc3c(C)ccc(C(=O)N[C@@H]4C(=O)N[C@H](C(C)C)C(=O)N5CCC[C@H]5C(=O)N(C)CC(=O)N(C)[C@@H](C(C)C)C(=O)O[C@@H]4C)c3nc-2c(C(=O)N[C@@H]2C(=O)N[C@H](C(C)C)C(=O)N3CCC[C@H]3C(=O)N(C)CC(=O)N(C)[C@@H](C(C)C)C(=O)O[C@@H]2C)c(N)c1=O (I: T[dV]P[Sar][NMeV] / II: T[dV]P[Sar][NMeV]; ester I:1-I:C, II:1-II:C; linker I:N-II:N via Actinocin(9to1)) .
yes

# credit: PubChem BioAssay (NCATS)
